target_entity: Gamma-aminobutyric acid receptor subunit alpha-1 (Rattus norvegicus, UniProt P62813)
Sequence (P62813 whole entry): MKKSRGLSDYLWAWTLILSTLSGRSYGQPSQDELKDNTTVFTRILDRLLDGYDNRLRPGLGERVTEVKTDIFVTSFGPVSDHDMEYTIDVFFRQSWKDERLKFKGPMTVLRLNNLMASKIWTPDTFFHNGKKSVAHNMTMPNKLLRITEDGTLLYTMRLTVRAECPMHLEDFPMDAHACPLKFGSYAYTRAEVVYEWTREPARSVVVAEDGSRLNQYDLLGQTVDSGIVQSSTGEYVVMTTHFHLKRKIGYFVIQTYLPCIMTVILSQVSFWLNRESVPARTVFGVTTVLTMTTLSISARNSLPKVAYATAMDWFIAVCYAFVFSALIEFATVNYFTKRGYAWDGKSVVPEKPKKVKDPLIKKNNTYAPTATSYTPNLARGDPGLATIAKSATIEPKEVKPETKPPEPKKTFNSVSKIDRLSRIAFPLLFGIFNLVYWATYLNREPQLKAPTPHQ
Where a SMILES comes first, the peptide text is derived from it.
observed_property: AC50

Ask: # query: AC50 of entry CC(=O)[C@@]1(O)CC[C@H]2[C@@H]3C[C@H](C)C4=CC(=O)C=C[C@]4(C)[C@@]3(F)[C@@H](O)C[C@@]21C [FLUOROMETHOLONE]
Reply: > 10 µM

Ask: Looking for the measured AC50 of C[C@]12CCC(=O)C=C1[C@@H]1C[C@@H]1[C@H]1[C@@H]3[C@@H]4C[C@@H]4[C@@]4(CCC(=O)O4)[C@@]3(C)CC[C@@H]12 [DROSPIRENONE] , can you help?
Reply: > 30 µM

Ask: Reported AC50 for CCOC(=O)[C@H](CCc1ccccc1)N[C@@H](C)C(=O)N1Cc2ccccc2C[C@H]1C(=O)O : what is it?
Reply: > 10 µM

Ask: // lookup AC50 for O=C(C[S+]([O-])Cc1ccco1)NC/C=C\COc1cc(CN2CCCCC2)ccn1 (stereo unspecified) [LAFUTIDINE]
Reply: > 10 µM

Ask: I'd like to know its AC50. The compound in question is CN(Cc1ccc(C(C)(C)C)cc1)Cc1cccc2ccccc12 [BUTENAFINE]
Reply: > 10 µM

Ask: Which AC50 value is on record for CC(=O)N1CCN(c2ccc(OCC3COC(Cn4ccnc4)(c4ccc(Cl)cc4Cl)O3)cc2)CC1 (stereo unspecified) [KETOCONAZOLE] ?
Reply: > 10 µM

Ask: // lookup AC50 for C[C@H](N)C(=O)N[C@@H](CCC(N)=O)C(=O)O [ALANYL GLUTAMINE] (H-Ala-Gln-OH)
Reply: > 30 µM

Ask: Consider the compound CC1(C)O[C@@H]2C[C@H]3[C@@H]4CCC5=CC(=O)C=C[C@]5(C)[C@@]4(F)[C@@H](O)C[C@]3(C)[C@]2(C(=O)CO)O1 [TRIAMCINOLONE ACETONIDE] and give its measured AC50.
Reply: > 30 µM

Ask: Would you kindly share the measured AC50 for Nc1nnc(-c2cccc(Cl)c2Cl)c(N)n1 [LAMOTRIGINE] ?
Reply: > 10 µM

Ask: Which AC50 is listed for Cc1ccc(O)c([C@H](CCN(C(C)C)C(C)C)c2ccccc2)c1 [TOLTERODINE] ?
Reply: > 30 µM

Ask: Please report the recorded AC50 for CCOC(=O)Nc1ccc(NCc2ccc(F)cc2)nc1N [FLUPIRTINE] .
Reply: > 30 µM

Ask: # lookup: AC50 of O=C(O)COC(=O)Cc1ccccc1Nc1c(Cl)cccc1Cl [ACECLOFENAC]
Reply: > 10 µM

Ask: Name the reported AC50 value associated with the compound CCc1ccc(C(=O)C(C)CN2CCCCC2)cc1 (stereo unspecified) [EPERISONE]
Reply: > 30 µM

Ask: Item O=C(c1ccccc1)c1ccc2n1CCC2C(=O)O (stereo unspecified) [KETOROLAC] has what recorded AC50?
Reply: > 30 µM

Ask: Requested field: AC50. Item: CC(C)/N=c1\cc2n(-c3ccc(Cl)cc3)c3ccccc3nc-2cc1Nc1ccc(Cl)cc1 [CLOFAZIMINE]
Reply: 29 µM

Ask: Need AC50, item CN(C)[C@@H]1C(O)=C(C(=O)NCN2CCCC2)C(=O)[C@@]2(O)C(O)=C3C(=O)c4c(O)cccc4[C@@](C)(O)[C@H]3C[C@@H]12 [ROLITETRACYCLINE]
Reply: > 10 µM

----------
Exercise: state measured AC50 for each of the molecules provided.
target_entity: Glutamate receptor ionotropic, NMDA 1 (Rattus norvegicus, UniProt P35439); further: assay procedure not described here

Ask: Fill in: AC50 of COc1ccc2c3c1O[C@H]1C(=O)CC[C@H]4[C@@H](C2)N(C)CC[C@]314 [HYDROCODONE] is ___
Reply: > 10 µM

Ask: Look up AC50 for this molecule: COc1ccc(-n2nc(C(N)=O)c3c2C(=O)N(c2ccc(N4CCCCC4=O)cc2)CC3)cc1 [APIXABAN]
Reply: > 30 µM

Ask: Entry Cc1ccc(-c2ncc(Cl)cc2-c2ccc(S(C)(=O)=O)cc2)cn1 [ETORICOXIB] : reported AC50 = ?
Reply: > 10 µM

Ask: Which AC50 value belongs to CCCO[C@H]1[C@@H]([C@@H](COCc2ccc(Cl)cc2)OCc2ccc(Cl)cc2)OC(OCC)[C@@H]1O (stereo partly drawn) [CLOBENOSIDE] ?
Reply: > 30 µM

Ask: // AC50 lookup, key: CCC(=O)O[C@H](CC(=O)O)C[N+](C)(C)C [LEVOCARNITINE PROPIONATE]
Reply: > 30 µM

Ask: Record request: AC50 value, item CC(C)/N=c1\cc2n(-c3ccc(Cl)cc3)c3ccccc3nc-2cc1Nc1ccc(Cl)cc1 [CLOFAZIMINE]
Reply: 22 µM

Ask: Find the recorded AC50 belonging to CC(=O)NC[C@H]1CN(c2ccc(N3CCOCC3)c(F)c2)C(=O)O1 [LINEZOLID] and report it.
Reply: > 30 µM

Ask: Given the molecule CC1Cc2ccccc2N1NC(=O)c1ccc(Cl)c(S(N)(=O)=O)c1 (stereo not drawn) [INDAPAMIDE] , what is its reported AC50?
Reply: > 10 µM

Ask: // returns reported AC50 for input CNC1(C)C2CCC(C2)C1(C)C (stereo not drawn) [MECAMYLAMINE]
Reply: > 10 µM

Ask: What value of measured AC50 is listed for CC1=C(C(=O)O)N2C(=O)[C@@H](NC(=O)[C@H](N)C3=CCC=CC3)[C@H]2SC1 [CEPHRADINE] ?
Reply: > 30 µM

Ask: Quick one: AC50 for Nc1cc(N2CCCCC2)nc(N)[n+]1[O-] [MINOXIDIL] ?
Reply: > 10 µM

Ask: Returns the measured AC50 for the input molecule. Input: C[C@]12CCC(=O)C=C1CC[C@H]1[C@@H]3CC[C@](O)(C(=O)CO)[C@@]3(C)C[C@H](O)[C@@]12F [FLUDROCORTISONE]
Reply: > 10 µM

Ask: Given the molecule OCCOCCN1CCN(C(c2ccccc2)c2ccc(Cl)cc2)CC1 (stereo not drawn) [HYDROXYZINE] , what is its reported AC50?
Reply: > 10 µM

Ask: # lookup: AC50 of COc1cc(C(=O)NCc2ccc(OCCN(C)C)cc2)cc(OC)c1OC [TRIMETHOBENZAMIDE]
Reply: > 30 µM

Ask: Bench note: what AC50 did Cc1cnc(Nc2ccc(OCCN3CCCC3)cc2)nc1Nc1cccc(S(=O)(=O)NC(C)(C)C)c1 [FEDRATINIB] show?
Reply: > 10 µM

Ask: Item CCc1ccc(C(=O)C(C)CN2CCCCC2)cc1 (stereo not drawn) [EPERISONE] has what recorded AC50?
Reply: > 30 µM

Ask: Entry OCCN(CCO)c1nc(N2CCCCC2)c2nc(N(CCO)CCO)nc(N3CCCCC3)c2n1 [DIPYRIDAMOLE] : reported AC50 = ?
Reply: > 30 µM

Ask: Can you look up the measured AC50 of CC(=O)SCC(Cc1ccccc1)C(=O)NCC(=O)OCc1ccccc1 (stereo not drawn) [RACECADOTRIL] for me?
Reply: > 30 µM

----------
Exercise: state measured AC50 for each of the compounds provided.

Ask: Provide value of AC50 for this record tested with Gamma-aminobutyric acid receptor subunit alpha-1 (Rattus norvegicus): CN(C)CCN(Cc1ccccc1)c1ccccn1
Reply: > 30 µM

Ask: Under Gamma-aminobutyric acid receptor subunit alpha-1 (Rattus norvegicus): AC50 value of C=CCOc1ccc(CC(=O)O)cc1Cl ?
Reply: > 30 µM

Ask: AC50 of CO[C@@]1(NC(=O)C(C(=O)O)c2ccc(O)cc2)C(=O)N2C(C(=O)O)=C(CSc3nnnn3C)CO[C@@H]21 (stereo not given in full) on Gamma-aminobutyric acid receptor subunit alpha-1 (Rattus norvegicus)?
Reply: > 30 µM

Ask: GET /values?readout=AC50&system=Gamma-aminobutyric acid receptor subunit alpha-1 (Rattus norvegicus)&item= CCOC(=O)[C@H](CCc1ccccc1)N[C@@H](C)C(=O)N1Cc2ccccc2C[C@H]1C(=O)O
Reply: > 30 µM

Ask: Item CC(=O)OC1CN2CCC1CC2 (stereo not given) with Gamma-aminobutyric acid receptor subunit alpha-1 (Rattus norvegicus) - AC50?
Reply: > 30 µM

Ask: Form entry - test system: Gamma-aminobutyric acid receptor subunit alpha-1 (Rattus norvegicus); read-out: AC50; compound: CC(=O)Nc1ccc(/C=N/NC(N)=S)cc1
Reply: > 30 µM

Ask: # returns recorded AC50 (system: Gamma-aminobutyric acid receptor subunit alpha-1 (Rattus norvegicus)) for NC(=O)N/N=C/c1ccc([N+](=O)[O-])o1
Reply: > 30 µM

Ask: What reported AC50 corresponds to N=C(N)NCC1COc2ccccc2O1 (stereo not given) on Gamma-aminobutyric acid receptor subunit alpha-1 (Rattus norvegicus)?
Reply: > 30 µM

Ask: What value of AC50 on Gamma-aminobutyric acid receptor subunit alpha-1 (Rattus norvegicus) does CC(C)(C)NCC(O)COc1ccccc1C#N (stereo not given) have?
Reply: > 30 µM

Ask: Find AC50 (Gamma-aminobutyric acid receptor subunit alpha-1 (Rattus norvegicus)) for the entry CN1CCC(N(Cc2cccs2)c2ccccc2)CC1
Reply: > 30 µM

Ask: Query for Gamma-aminobutyric acid receptor subunit alpha-1 (Rattus norvegicus): what AC50 does the record show for Cc1cccc(C)c1NC(=O)CN(CC(=O)O)CC(=O)O ?
Reply: > 30 µM

Ask: Please tell me: AC50 of OC(CN1CCCCC1)c1cc(-c2ccccc2)on1 (stereo not given) , system Gamma-aminobutyric acid receptor subunit alpha-1 (Rattus norvegicus)?
Reply: > 30 µM

Ask: Form field: AC50 recorded for C[C@]12CC[C@@H]3c4ccc(OC(=O)N(CCCl)CCCl)cc4CC[C@H]3[C@@H]1CC[C@@H]2OP(=O)(O)O [ESTRAMUSTINE PHOSPHATE] with Gamma-aminobutyric acid receptor subunit alpha-1 (Rattus norvegicus) (enter value)
Reply: > 30 µM

Ask: Hello, I am looking for reported AC50 with Gamma-aminobutyric acid receptor subunit alpha-1 (Rattus norvegicus) for CCCCCCO[C@@H](C)c1cccc(-c2csc(NC(=O)c3cc(Cl)c(/C=C(\C)C(=O)O)c(Cl)c3)n2)c1OC . Could you help?
Reply: > 30 µM

Ask: State its AC50 on Gamma-aminobutyric acid receptor subunit alpha-1 (Rattus norvegicus): O=NN(CCCl)C(=O)NCCCl
Reply: > 30 µM

Ask: Provide value of AC50 for this record tested with Gamma-aminobutyric acid receptor subunit alpha-1 (Rattus norvegicus): CC(O)(CC(=O)O)CC(=O)O
Reply: > 30 µM

Ask: Missing value: AC50, Gamma-aminobutyric acid receptor subunit alpha-1 (Rattus norvegicus), entry CC1(C)CCC(C)(C)c2cc(NC(=O)c3ccc(C(=O)O)cc3)ccc21 . Fill in?
Reply: > 30 µM

Ask: Request - read-out AC50 | tested on Gamma-aminobutyric acid receptor subunit alpha-1 (Rattus norvegicus) | compound CC(C)NC[C@H](O)COc1ccc(CCOCC2CC2)cc1
Reply: > 30 µM

Ask: Requested read-out AC50, target or system Gamma-aminobutyric acid receptor subunit alpha-1 (Rattus norvegicus), entry COc1cccc2c1C(=O)c1c(O)c3c(c(O)c1C2=O)C[C@@](O)(C(=O)CO)C[C@@H]3O[C@H]1C[C@H](N)[C@@H](O)[C@H](C)O1 [EPIRUBICIN]
Reply: > 30 µM

Ask: Please tell me: AC50 of CC1=C(/C=C/C(C)=C/C=C/C(C)=C\C(=O)O)C(C)(C)CCC1 , system Gamma-aminobutyric acid receptor subunit alpha-1 (Rattus norvegicus)?
Reply: > 30 µM
